Where these numbers come from: patent US11345666B2

# Target: human RORγt ligand binding domain (RORγt LBD) (Homo sapiens (Human))
# Sequence (P51449 other isoform, or with tags, fused parts or gaps): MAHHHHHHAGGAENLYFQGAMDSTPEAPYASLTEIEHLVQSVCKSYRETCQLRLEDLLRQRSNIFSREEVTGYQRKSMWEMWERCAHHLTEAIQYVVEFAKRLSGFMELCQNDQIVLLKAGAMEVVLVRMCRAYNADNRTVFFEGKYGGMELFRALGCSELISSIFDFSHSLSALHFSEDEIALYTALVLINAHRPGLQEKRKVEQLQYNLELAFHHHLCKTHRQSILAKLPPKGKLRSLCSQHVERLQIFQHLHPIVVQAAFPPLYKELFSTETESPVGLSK
Note to self: Kd under 0.03 µM means yes (1), ties and anything higher get no (0).

Solved cases below.
For CCc1nc(C(=O)NC[C@]2(C#N)CC[C@@H](S(C)(=O)=O)CC2)c(C#N)n1-c1ncc(CC(C)(C)C(F)(F)F)cc1OC [Example 124] , is the recorded Kd below the cut-off of 0.03 µM?
no (0)

For CCc1nc(C(=O)NC[C@]2(O)CC[C@@H](S(C)(=O)=O)CC2)c(Cl)n1-c1ncc(C[C@@H](C)C(F)(F)F)cc1OC(F)F (single isomer, unassigned) [Example 79] , is the recorded Kd below the cut-off of 0.03 µM?
yes (1)

Switching to the query record.
For CCc1nc(C(=O)NC[C@H]2CC[C@H](S(=O)(=O)NC)CC2)c(Cl)n1-c1ncc(CC(C)(C)C(F)(F)F)cc1OC(F)F [Example 68] , is the recorded Kd below the cut-off of 0.03 µM?
yes (1)

----------
Could you please report measured inhibition at 6 µM for the items listed next?
# Target: full-length human RORγt (Homo sapiens (Human))
# Protocol Details: RORγt (full-length human) reporter assay, conditions A or B
# Assay type: cell-based
# Protocol Conditions: read-out: RORγt (FL) Reporter Assay A or B, % inhibition @ 6 μM; 6 μM compound concentration
Give bare numbers, in %.

Tested system full-length human RORγt (Homo sapiens (Human)); inhibition at 6 µM recorded for "CCc1nc(C(=O)NC[C@]2(O)CC[C@@H](S(C)(=O)=O)CC2)c(C(N)=O)n1-c1ccc(CCC(F)(F)F)cc1F" was 75

Tested system full-length human RORγt (Homo sapiens (Human)); inhibition at 6 µM recorded for "CCCc1nc(C(=O)NC[C@H]2CC[C@H](S(C)(=O)=O)CC2)c(Cl)n1-c1ccc(N[C@H](C)C(F)(F)F)cc1OC" was 102

Tested system full-length human RORγt (Homo sapiens (Human)); inhibition at 6 µM recorded for CCc1nc(C(=O)NC[C@]2(O)CC[C@@H](S(C)(=O)=O)CC2)c(Cl)n1-c1ccc(CC(C)C)cc1OC (single isomer, unassigned) was 72

Tested system full-length human RORγt (Homo sapiens (Human)); inhibition at 6 µM recorded for "CCc1nc(C(=O)NC[C@]2(O)CC[C@@H](S(C)(=O)=O)CC2)c(C#N)n1-c1ccc(CCC(F)(F)F)cc1F" was 72

Tested system full-length human RORγt (Homo sapiens (Human)); inhibition at 6 µM recorded for "CCc1nc(C(=O)NC[C@]2(O)CC[C@@H](S(C)(=O)=O)CC2)c(F)n1-c1ccc(CC(C)(C)C(F)(F)F)cc1OC(F)F" was 97

For each of the compounds below, state inhibition at 6 µM.
1. CCc1nc(C(=O)NC[C@H]2CC[C@H](S(C)(=O)=O)CC2)c(C#N)n1-c1ccc(CCC(F)(F)F)cc1OC
2. CCc1nc(C(=O)NC[C@]2(C#N)CC[C@@H](S(C)(=O)=O)CC2)c(C#N)n1-c1ncc(CCC(F)(F)F)cc1OC

1: 101; 2: 76

----------
Could you please report measured inhibition at 3 µM for the items listed next?
# Target: full-length human RORγt (Homo sapiens (Human), UniProt P51449)
# Sequence (P51449 other isoform, or with tags, fused parts or gaps): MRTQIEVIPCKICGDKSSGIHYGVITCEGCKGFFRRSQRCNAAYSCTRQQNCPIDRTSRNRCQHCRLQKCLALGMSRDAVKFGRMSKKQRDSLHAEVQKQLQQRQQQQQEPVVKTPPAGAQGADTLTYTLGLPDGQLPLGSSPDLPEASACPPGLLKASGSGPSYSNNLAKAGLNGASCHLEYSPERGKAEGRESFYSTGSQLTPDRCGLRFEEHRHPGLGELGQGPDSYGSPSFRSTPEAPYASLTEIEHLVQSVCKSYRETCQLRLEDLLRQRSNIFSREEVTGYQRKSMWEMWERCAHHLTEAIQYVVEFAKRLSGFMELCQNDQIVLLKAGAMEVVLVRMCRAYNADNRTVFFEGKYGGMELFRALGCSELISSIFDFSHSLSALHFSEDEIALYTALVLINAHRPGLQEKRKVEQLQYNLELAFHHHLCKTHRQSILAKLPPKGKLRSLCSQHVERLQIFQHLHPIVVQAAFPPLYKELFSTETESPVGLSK
# Protocol Details: RORγt (full-length human) reporter assay, conditions A or B
# Assay type: cell-based
# Protocol Conditions: read-out: RORγt (FL) Reporter Assay A or B, % inhibition, 3 μM compound concentration (*)
Give bare numbers, in %.

The following compounds have reported results that may help.
Noted for Cc1nc(C(=O)NC[C@H]2CC[C@H](S(C)(=O)=O)C[C@@H]2O)c(C#N)n1-c1ccc(CC(C)(C)C(F)(F)F)cc1OC(F)F (single isomer, unassigned) : its inhibition at 3 µM reads 102

Noted for CCc1nc(C(=O)NC[C@H]2CC[C@H](S(C)(=O)=O)C[C@@H]2O)c(Cl)n1-c1ncc(CC(C)(C)C(F)(F)F)cc1OC(F)F (single isomer, unassigned) : its inhibition at 3 µM reads 121

Noted for Cc1nc(C(=O)NC[C@@H]2CC[C@@H](S(C)(=O)=O)C[C@H]2O)c(C#N)n1-c1ccc(CC(C)(C)C(F)(F)F)cc1OC(F)F (single isomer, unassigned) : its inhibition at 3 µM reads 98

Here is another compound to look at.
Noted for CCc1nc(C(=O)NC[C@@H]2CC[C@@H](S(C)(=O)=O)C[C@H]2O)c(Cl)n1-c1ncc(CC(C)(C)C(F)(F)F)cc1OC(F)F (single isomer, unassigned) : its inhibition at 3 µM reads 104
